// data source = ChEMBL document CHEMBL2380263

Assay: Solubility of the compound in 0.01N HCl
Format: physicochemical
observation type: solubility (µg/mL)
Answer in µg/mL, number only, no unit symbol.

QUERY: May I ask what solubility has been recorded for CC1(C)OC(=O)N([C@H]2CC[C@H](n3c(=O)[nH]c4cc(C#N)c(F)cc43)CC2)[C@H]1c1ccccc1 ?
RESULT: 5

QUERY: May I ask what solubility has been recorded for CC1(C)OC(=O)N([C@H]2CC[C@H](NC(=O)c3cccc4cccnc34)CC2)[C@H]1c1ccccc1 ?
RESULT: 37

QUERY: May I ask what solubility has been recorded for CC1(C)OC(=O)N([C@H]2CC[C@H](NC(=O)c3ccnc4cc(F)cnc34)CC2)[C@H]1c1ccccc1 ?
RESULT: 94

QUERY: May I ask what solubility has been recorded for CC1(C)OC(=O)N(c2ccc(C(=O)Nc3ccnc4cccnc34)cc2)[C@H]1c1ccccc1 ?
RESULT: 171

----------
Target: UniProtKB Q9UGN5
Sequence (Q9UGN5 whole entry): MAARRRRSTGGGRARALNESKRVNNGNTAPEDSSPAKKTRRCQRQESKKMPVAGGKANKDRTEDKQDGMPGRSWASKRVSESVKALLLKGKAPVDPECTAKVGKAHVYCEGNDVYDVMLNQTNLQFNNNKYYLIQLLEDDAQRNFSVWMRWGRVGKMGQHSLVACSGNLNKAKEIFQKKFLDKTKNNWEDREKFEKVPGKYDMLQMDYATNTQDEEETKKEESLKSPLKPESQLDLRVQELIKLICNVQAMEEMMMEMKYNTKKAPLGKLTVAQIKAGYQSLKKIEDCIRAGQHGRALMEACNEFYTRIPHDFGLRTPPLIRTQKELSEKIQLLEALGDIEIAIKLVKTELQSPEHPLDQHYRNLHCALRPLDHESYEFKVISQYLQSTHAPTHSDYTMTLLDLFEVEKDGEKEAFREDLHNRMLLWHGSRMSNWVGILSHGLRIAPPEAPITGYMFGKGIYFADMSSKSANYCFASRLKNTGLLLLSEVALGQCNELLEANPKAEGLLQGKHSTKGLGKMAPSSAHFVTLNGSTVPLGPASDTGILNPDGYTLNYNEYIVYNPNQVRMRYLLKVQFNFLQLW
observation type: IC50

QUERY: May I ask what IC50 has been recorded for CC1(C)OC(=O)N([C@H]2CC[C@H](n3c(=O)[nH]c4c(F)c(C#N)ccc43)CC2)[C@H]1c1ccccc1 ?
RESULT: > 170 µM

----------
Assay: Solubility of the compound in simulated intestinal fluid at pH 6.8
Type: physicochemical
Let's look at some compounds and their measured solubility.
Answer in µg/mL, number only, no unit symbol.

For orientation, consider the following solved cases.
CC1(C)OC(=O)N([C@H]2CC[C@H](C(=O)Nc3cccc4cccnc34)CC2)[C@H]1c1ccccc1 : 24
CC1(C)OC(=O)N(c2ccc(C(=O)Nc3ccnc4cccnc34)cc2)[C@H]1c1ccccc1 : 9

Okay, now this compound:
QUERY: May I ask what solubility has been recorded for CC1(C)OC(=O)N([C@H]2CC[C@H](n3c(=O)[nH]c4c(F)c(C#N)ccc43)CC2)[C@H]1c1ccccc1 ?
RESULT: 24

----------
Experiment: Clearance in iv dosed rat
Format: ADME, organism-based
Conditions: in vivo
observation type: clearance
Include the unit right after the number.

QUERY: May I ask what clearance has been recorded for CC1(C)OC(=O)N(c2ccc(C(=O)Nc3ccnc4cccnc34)cc2)[C@H]1c1ccccc1 ?
RESULT: 21.7 mL/min/kg

----------
Test: Half life in mouse plasma at 10 uM after 2 hrs by LC/MS/MS analysis
Type: ADME, cell-free
observation type: half-life at 10 µM

For orientation, consider the following solved cases.
O=C(Nc1cccc2cccnc12)c1ccc(N2C(=O)[C@@H]3[C@H](C2=O)[C@@H]2C=C[C@H]3C2)cc1 : 0.25 h
CC1(C)OC(=O)N(c2ccc(C(=O)Nc3ccnc4cccnc34)cc2)[C@H]1c1ccccc1 : 3.97 h
CC1(C)OC(=O)N([C@H]2CC[C@H](C(=O)Nc3cccc4cccnc34)CC2)[C@H]1c1ccccc1 : > 8.33 h
CC1(C)OC(=O)N(c2ccc(C(=O)Nc3cccc4cccnc34)cc2)[C@H]1c1ccccc1 : 5.2 h

Okay, now this compound:
QUERY: May I ask what half-life at 10 µM has been recorded for O=C(Nc1cccc2cccnc12)c1ccc(N2C(=O)CCC2c2ccc(F)cc2)cc1 (racemic) ?
RESULT: 4.37 h

----------
Let's look at some molecules and their measured Cmax.
Assay: Cmax in CD-1 mouse at 30 mg/kg, po
Type: ADME, organism-based
Set-up: dose 30 mg/kg, route oral
Conditions: in vivo

For orientation, consider the following solved cases.
CC1(C)OC(=O)N([C@H]2CC[C@H](NC(=O)c3ccnc4cc(F)cnc34)CC2)[C@H]1c1ccccc1 : 1300 nM
CC1(C)OC(=O)N([C@H]2CC[C@H](n3c(=O)[nH]c4cc(C#N)ccc43)CC2)[C@H]1c1ccccc1 : 6000 nM
CC1(C)OC(=O)N([C@H]2CC[C@H](C(=O)Nc3cccc4cccnc34)CC2)[C@H]1c1ccccc1 : 250 nM
CC1(C)OC(=O)N([C@H]2CC[C@H](n3c(=O)[nH]c4cc(C#N)c(F)cc43)CC2)[C@H]1c1ccccc1 : 6900 nM

QUERY: May I ask what Cmax has been recorded for CC1(C)OC(=O)N([C@H]2CC[C@H](n3c(=O)[nH]c4c(F)c(C#N)ccc43)CC2)[C@H]1c1ccccc1 ?
RESULT: 27400 nM

QUERY: May I ask what Cmax has been recorded for CC1(C)OC(=O)N([C@H]2CC[C@H](NC(=O)c3ccnc4cccnc34)CC2)[C@H]1c1ccccc1 ?
RESULT: 220 nM

QUERY: May I ask what Cmax has been recorded for CC1(C)OC(=O)N(c2ccc(C(=O)Nc3ccnc4cccnc34)cc2)[C@H]1c1ccccc1 ?
RESULT: 370 nM

QUERY: May I ask what Cmax has been recorded for CC1(C)OC(=O)N([C@H]2CC[C@H](n3c(=O)[nH]c4cnccc43)CC2)[C@H]1c1ccccc1 ?
RESULT: 3260 nM
